# reported PBM binding z-score; entries follow
tested on: RXRa homodimer (NR concentration 180 nM); test: PBM binding z-score (relative to random genomic background probes); higher = stronger binding; sequences stand for … in GC…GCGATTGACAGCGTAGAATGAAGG
Quantity name: PBM binding z-score

Ordered residues	Quantity name	Quantitative readout
TCTGCTAGGTTAACGATGGTCAGCTAATCTGCTA	PBM binding z-score	0.42
AGTCAAAGTTCACTAGGTGACGTAAGATTCAGCT	PBM binding z-score	3.96
CGTCCAAGGTCAATGCTAGGTCAGAGAAAGCATT	PBM binding z-score	6.03
TCTTGTACATCAGCAGGTTAAGAAAGCTGGCCAA	PBM binding z-score	0.606
CGTCCAAGGTCAATGGTCAGTGAAGAGATGACGG	PBM binding z-score	4.67
TCTAGCAGGCCAAAGGGTCACTCAAGAGGTACGG	PBM binding z-score	4.24
TGAATGAGGGTAAAGATCAGGGAACGTGGCGTCG	PBM binding z-score	1.07
CATACTGGGCCAAGGTCATTGATCAGTCAAAGCA	PBM binding z-score	3.31
TCATATATGTAAATGCTAGGTGAAAGTCCGATCT	PBM binding z-score	0.654
CCTACTGGTCCAAAGGTCATTGATTCCAATGCTC	PBM binding z-score	5.45
CCTCCTAGGTCAATGGTCAGCTAAAGCAGCTCGC	PBM binding z-score	2.16
ACAGACAGGTGATGAAGGTAACTGAGGCTATCAT	PBM binding z-score	0.305
TCTTGTAGAGCAACAGGAGGTTAAGAAAGATCGA	PBM binding z-score	0.479
AGAATGAGGCTATTAAGATCAGGGAATTGCGGTC	PBM binding z-score	0.257
CAAACTAGGTCAAGGTCAAGGTCGGTTTGTGCCA	PBM binding z-score	6.62
CCTAGTGGGCCATTCAGAGGTCATTGATCATATG	PBM binding z-score	3.76
TCTTGTGGATCAAGCAGGTTAAGAAAGCCTGAGT	PBM binding z-score	0.211
TCGAGTAGGTTACCAATGGGGCAGTCAGCTTTCT	PBM binding z-score	0.404
CCTGCTAGGTCAATAGTCAGCTAAAGCAGCTCGC	PBM binding z-score	1.42
CCTACTGGGCCATCAGGTCATAGATATCAACGTT	PBM binding z-score	1.28
AGAACGAGGGCGATGAGTTGATAGCACGGGTGGC	PBM binding z-score	0.298
CCAGACAGGTGTAAGGTAACTCAGTCTGGTACGC	PBM binding z-score	-0.0847
GCGACTGGGGCAAAGGAGGTTACCATAAGGTTGG	PBM binding z-score	1.12
ATATGTAGATTAAGGGTCATTCAGGTTGGTTCGC	PBM binding z-score	4.48
GATACAGGGTCCGCTAGAGGCCAGAGTATGGAAA	PBM binding z-score	-0.246
ATCGAAAGCTCGAAGGTGAGTATACCCACCCGAA	PBM binding z-score	0.158

###

# reported PBM binding z-score; entries follow
tested on: PPARg:RXRa (NR concentration 180 nM, RXRa partner concentration 90 nM); assay: PBM binding z-score (relative to random genomic background probes); higher = stronger binding; sequences stand for … in GC…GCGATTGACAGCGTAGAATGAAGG
Quantity name: PBM binding z-score

Ordered residues	Quantity name	Quantitative readout
TCGAGTAGGTTACCAGTGGGGCATTCAGCTTTCT	PBM binding z-score	0.278
CCTATTGGGCCAAAAAGGTCATTGATGCCGATAA	PBM binding z-score	2.25
ACAACGAGGGCACGCTGAGTTGATAGCAGAGTAG	PBM binding z-score	1.65
GATACAGGGTCAAGGCCGGAGTACGCGTATTGAT	PBM binding z-score	5.78
GGAACGAGGGCAAGTTGATAGTAGAGTTTGATGG	PBM binding z-score	1.01
ATCGAAAGGCCGACGAGGTGAGTATACACCGTTT	PBM binding z-score	0.686
CCGACTGGGGCATAAGGCTACCATAAGCCAGCCC	PBM binding z-score	1.55
CCTTACGGGTCACTCCAGGTTATAGCCTCGGAGT	PBM binding z-score	3.61
ATGTCTAGGTAAAAGTTCAGTGAATCCCGAGGAT	PBM binding z-score	7.03
ATATGTAGGTTAGCTGGGTTCATTCAGACTAGGC	PBM binding z-score	4.18
TCTAGAAGGCCAGAGGGTCACTCAAGAGGTACGG	PBM binding z-score	1.33
CCTTAAGGGTCACTGACAGGTTATAGCATTTGGA	PBM binding z-score	6.29

###

# reported PBM binding z-score; entries follow
test system: PPARg:RXRa 90nM:30nM, anti-RXR (NR concentration 90 nM, RXRa partner concentration 30 nM); experiment: PBM binding z-score (relative to random genomic background probes); higher = stronger binding; sequences stand for … in GC…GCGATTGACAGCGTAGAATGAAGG
Quantity name: PBM binding z-score

Ordered residues	Quantitative readout
CCTGCTAGGTCTTGGTCAGCTAATCTACAGTATG	-0.872
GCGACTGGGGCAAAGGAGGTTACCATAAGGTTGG	3.87
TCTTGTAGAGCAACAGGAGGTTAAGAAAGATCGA	0.921
GCTGCTAGGTCAACTGATCGTCAGCTAAAGCTCG	2.23
TCTGGTAGATCAACAGGAGGTTAAGAAAGATCGA	1.82
CGTCCAAGGTCTGCAGGTCAGTGAAAGCGACGTG	-0.257
CCGAGTTGGTCAGGAGGTCACACACCGGATATGA	2.36
CAAACTAGGTCATGGTCAAAGTCGGTTTGTGCCA	6.63
ACATGTAGGTTAGCTGGGGTCATTCAGACTAGGC	3.39
CCGACTGCGGCAAAGGTTACCATACTCAGTACGA	4.38
ACTATTAGTCGAGACGAGGGCAACCGATAGGTTG	0.381
CGTCCAAGGTCAATGTCAGTGAAAGAGACTCGAA	2.57
TCTTGTAGATCAGCAGGTTAAGAAGGCTGGCCAA	2.41
CCGACTGGGACAAAGGTTACCATACTCAGTACGA	10.5
GATACAGGGTCAAGGCCAGATTACGCGTATTGAT	4.09
TAGCTTAGGTCATGGGCCAGTATACCACGCGAAC	2.08
TAGCCTAGGTCATTGGGCCACTATAGTACGCATC	3.18
AGAATGAGGTTAATAAGATCAGGGAATTGCGGTC	1.58
TCATATAGGTAATACAGGAGAAAGTCGGCATCTA	2.81
ATCTCTAGGTGACAAGTTCAGTGAAAGAGAGGAC	2.43
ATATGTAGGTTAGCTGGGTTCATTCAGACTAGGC	2.89
CCTAGTTGTTCAAGGTCACACACGCTATAGGTAC	2.55
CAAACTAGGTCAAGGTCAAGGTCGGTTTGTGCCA	8.36
CTTCGGAGGACAGAAGGTCAGAGCTGTCCGCTTT	0.484
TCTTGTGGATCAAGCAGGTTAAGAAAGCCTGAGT	1.58
TCTATTAGTTAAAGGGCAACCGACGAGTCCGTTT	3.45

###

# reported PBM binding z-score; entries follow
tested on: LXRa homodimer (NR concentration 270 nM); test: PBM binding z-score (relative to random genomic background probes); higher = stronger binding; sequences stand for … in GC…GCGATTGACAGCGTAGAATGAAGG

Ordered residues	PBM binding z-score
TCGAGTAGGTTAGGGGCATGCAGAATGGCGTCGA	-0.474
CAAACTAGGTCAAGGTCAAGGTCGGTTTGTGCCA	3.72
TCTTGTAGTTCAACAGGAGGTTAAGAAAGATCGA	1
ATCGAAAGGTCGTGAGGTGAGGATACAGAAAGGC	0.323
TAGCCTTGGTCAGATCGGGCCAGTATACGCTATA	-0.925
GCAGACATGTGAAACGCAGGTAACTCAGGGTGGC	-0.866
GGAACGAGGGCAAAGTTGATAGCATCTGTCGACG	-0.231
TGTCAAAGTTCAAAGGTAACATAAGTATCCACAC	4.6

###

# reported PBM binding z-score; entries follow
tested on: LXRb homodimer (NR concentration 270 nM); experiment: PBM binding z-score (relative to random genomic background probes); higher = stronger binding; sequences stand for … in GC…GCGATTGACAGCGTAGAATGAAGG

Ordered residues	PBM binding z-score
CGTCGAAGTTCAAGGTAACGTAACAGAAAGCAGC	-0.503
GCATATAGGTAATACAAGGTGAAATTCCGATTGT	-0.117
CCTAGCAGGCCAGGGTCCCTCAAGCATTTCGCTT	-1.31
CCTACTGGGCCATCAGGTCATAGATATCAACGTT	-0.323
TGTCAAAGTTCAAAGGTATCGTAAGTATCCACAC	1.73
AGAACGAGCGCAATGAGTTGATAGCACGGGTGGC	-0.728
GCTCGGAGGAAAAGGTCAGAGCTTTGTCCGTAGA	-0.596
GCTGTTAGGTCAACTGATGGTCAGCTAAAGCTCG	1.02
ATATGTAGGTTATCGGGACATTCAGTTTGCGCAT	0.692
ACTACTAGTTGACTTAGGGCAACCGATACGACGC	0.134
AATACAGGCTCACTAGGCCAGAGTAGGTACGAAT	-0.695
CCAGACAGGTGAGAAGGTAGCTCAGCCTCGATTA	-0.763
